experiment: yeast display, Sf9 membrane polyspecificity reagent, FACS + sequencing; frameworks hold sequencing errors
Measurement label: polyreactivity (PSR sort gate)

Use these answered entries as a reference point.
Macromolecule sequence | polyreactivity (PSR sort gate)
QVQLVESWGGLVQAGGSLRLSCAASGSTFTPYVMGWSRQAPGKERELVAAISKRGGSTYYADSVKGRFTISRDNANNSVYLQMNSLKPADTAVYYCAAVQPAWGNGYWGQGTQVTVSS | high polyreactivity
QVQLVESGGGLVQAGGSLRLSCAASGSIFGYYAMGWYTLAPGKERELVASISFSGGSTYYADSVKGRFTISRDNAKNTVYLQMNSLKPEDTAVYYCAKRPRFVYWKHGYWGQGTQVTVSS | high polyreactivity
QVQLVESGGGLVQAGGSLRLSCAASGFTFPSNGMGWYRQAPGKERELVAVIDWSDDSTYYADSVKGRFTISRDNAKNTVYLQMNSLKPEDTAVYYCNARHYLYHGYIVPKYSYGYDYWGQGTQVTVSS | low polyreactivity
QVQLVESGGGLVQAGGSLRLSCAASGRTFSAYAMGWYRQAPGKERELVARITSVDSTNYADSVKGRFTISRDNAKNTVYLLMNSLKPEDTAVYYCNATFGYPFVDYDDYWGQGTQVTVSS | low polyreactivity

Pending sequence:
# polyreactivity (PSR sort gate) (sequence: `QVQLVESGGGLVQAGGSLRVSCAASGSIFQANAMGGYRQAPGKERELVAASRWSGGSTNYPDSVKGRFSISRDNAKNTVYLPMNSLKPEDTAVYYCAAKRFSSPYWEYYWGQGTQVTVSS` ) is high polyreactivity
